These entries and their values trace back to the supplement of paper PMC6555819.

System: VDR:RXRa (NR concentration 270 nM, RXRa partner concentration 90 nM)
assay.comment: PBM binding z-score (relative to random genomic background probes); higher = stronger binding; sequences stand for … in GC…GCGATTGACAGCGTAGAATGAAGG
The recorded PBM binding z-score of each item maps onto one of these classes: 0: < 0.9; 1: ≥ 0.9 and < 4; 2: ≥ 4

Use these answered entries as a reference point.
- seq.text: "TCTAGTTGGTCAAAGTTCACACACTCGAAATGCG"
  class.label: 2
- seq.text: "ATATGTATGTTAAGGGTCATTCAGGTTGGTTCGC"
  class.label: 2
- seq.text: "GCGACTGGGGCATCCGCAGGTTACCATAACTTAA"
  class.label: 0
- seq.text: "GGAACTAGGGCATTCGAGTTGATAGCATGGCGAT"
  class.label: 1

Next up:
Incoming: Into which category would you place CGTCCAAAGTCAAGGTCAGTGAAAGAGACTCGAA ?
Outgoing: 1

---

Tested on: RARg:RXRa (NR concentration 270 nM, RXRa partner concentration 90 nM)
assay.comment: PBM binding z-score (relative to random genomic background probes); higher = stronger binding; sequences stand for … in GC…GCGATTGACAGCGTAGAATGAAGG
Assign YES to entries whose PBM binding z-score meets or exceeds 1; assign NO to the rest.

Use these answered entries as a reference point.
- seq.text: "GCTATTAGTTGAAAGGGCAACTGAATGATTCTCG"
  assay.target: "RARg:RXRa (NR concentration 270 nM, RXRa partner concentration 90 nM)"
  class.label: "YES"
- seq.text: "AGTCAAAGTTCACTATGTAACGTAAGATTCAGCT"
  assay.target: "RARg:RXRa (NR concentration 270 nM, RXRa partner concentration 90 nM)"
  class.label: "YES"
- seq.text: "TCAGACAGGTGAAGGTAACTGAGGTACGCAGTCG"
  assay.target: "RARg:RXRa (NR concentration 270 nM, RXRa partner concentration 90 nM)"
  class.label: "NO"

Incoming: Does the sequence CCTACTGGGCCAAAAAGGTCAATGATGCCGATAA have recorded PBM binding z-score that is 1 or more?
Outgoing: YES

Incoming: Does the sequence TGAATGAGGTTAAAGATCACGGAACGTGGCGTCG have recorded PBM binding z-score that is 1 or more?
Outgoing: YES

Incoming: Does the sequence CCTTACGGGTCACTCCCGGTTATAGCATCGGAGT have recorded PBM binding z-score that is 1 or more?
Outgoing: YES

Incoming: Does the sequence AGAACGAGGGCAATGAGTTGATTGCACGGGTGGC have recorded PBM binding z-score that is 1 or more?
Outgoing: NO

Incoming: Does the sequence TCAGACAGGTGAAGGTAACTTAGGTACGCAGTCG have recorded PBM binding z-score that is 1 or more?
Outgoing: NO

Incoming: Does the sequence ATCCCTAGGTAACAAGTTCAGTGAAAGAGAGGAC have recorded PBM binding z-score that is 1 or more?
Outgoing: YES

Incoming: Does the sequence TAGTCTAGGTCATGCGGGCCAGTATAGTGTCGGC have recorded PBM binding z-score that is 1 or more?
Outgoing: YES

Incoming: Does the sequence CGTCCAAGCTCAAGGTCAGTGAAAGAGACTCGAA have recorded PBM binding z-score that is 1 or more?
Outgoing: YES

Incoming: Does the sequence CCGACTGGGGCTTAAGGTTACCATAAGCCAGCCC have recorded PBM binding z-score that is 1 or more?
Outgoing: NO

Incoming: Does the sequence ACTATTAGTTGACTTACGGCAACCGATACGACGC have recorded PBM binding z-score that is 1 or more?
Outgoing: NO

Incoming: Does the sequence ACAGACAGGTGAGTGAAGGTATCTCAGCTGGACG have recorded PBM binding z-score that is 1 or more?
Outgoing: NO

Incoming: Does the sequence TGTCAAAGTTCAAAGGTAACGTTAGTATCCACAC have recorded PBM binding z-score that is 1 or more?
Outgoing: YES

Incoming: Does the sequence TAGCCTAGGTCATTGGCCCAGTATAGTACGCATC have recorded PBM binding z-score that is 1 or more?
Outgoing: YES

Incoming: Does the sequence GATACAGGCTCAGCTAGAGGCCAGAGTATGGAAA have recorded PBM binding z-score that is 1 or more?
Outgoing: NO

Incoming: Does the sequence GCTCGGAGGACCAGGTCAGAGCTTTGTCCGTAGA have recorded PBM binding z-score that is 1 or more?
Outgoing: NO

Incoming: Does the sequence ACTAGCAGGCCAAGTTTGAGTCACTCAAACAAAG have recorded PBM binding z-score that is 1 or more?
Outgoing: NO

Incoming: Does the sequence CCAGACAGGTGAGACGGTAACTCAGCCTCGATTA have recorded PBM binding z-score that is 1 or more?
Outgoing: NO

Incoming: Does the sequence ACTAGTTGGTCAGCTGAGGTCACAGACAATTCGG have recorded PBM binding z-score that is 1 or more?
Outgoing: YES

Incoming: Does the sequence GTAGCAAGGTGAATAGGTCGTTGATGAGTAGGCG have recorded PBM binding z-score that is 1 or more?
Outgoing: YES

---

Entries annotated with measured PBM binding z-score
Tested on: PPARg DBDmut IVT, anti-PPARg (DBD mutation: PPARg1 K132A/R137A, NR concentration 270 nM)
assay.comment: PBM binding z-score (relative to random genomic background probes); higher = stronger binding; sequences stand for … in GC…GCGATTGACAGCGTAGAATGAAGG
Lab note: write the figure by itself, no unit.

Look over these answered cases.
- seq.text: "TGAAGGAGGTTAAAGATCAGGGAACGTGGCGTCG"
  reported.value: -0.165
- seq.text: "CGCACGAGGGCATGAGTTGATAGCAAATGCCGAT"
  reported.value: -0.507
- seq.text: "TCTTGTAGATCGACAGGAGGTTAAGAAAGATCGA"
  reported.value: 0.679
- seq.text: "CCTTACGGGTCAATCCAGGTTATAGCATCGGAGT"
  reported.value: -0.233

Incoming: // lookup PBM binding z-score for GGAACGAGGGCGAGTTGATAGCAGAGTTTGATGG
Outgoing: 0.298

Incoming: // lookup PBM binding z-score for ACAGACATGTGATGAAGGTAACTCAGGCTATCAT
Outgoing: 0.868

Incoming: // lookup PBM binding z-score for CTACCAAGGTGACCAAGGTCGTTGATTACTATTC
Outgoing: -0.385

Incoming: // lookup PBM binding z-score for CGTCAATGTTCAAGGTAACGTAACAGAAAGCAGC
Outgoing: 0.433

---

Test system: FXR:RXRa (NR concentration 270 nM, RXRa partner concentration 90 nM)
assay.comment: PBM binding z-score (relative to random genomic background probes); higher = stronger binding; sequences stand for … in GC…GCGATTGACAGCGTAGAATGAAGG
Assign Condition met to entries whose PBM binding z-score meets or exceeds 1; assign Condition not met to the rest.

Use these answered entries as a reference point.
- seq.text: "CCTTACGGGTCAAGGTTCTAGCACGGGTGGTACG"
  assay.target: "FXR:RXRa (NR concentration 270 nM, RXRa partner concentration 90 nM)"
  class.label: "Condition met"
- seq.text: "TCGAGTAGGTTAAGGGCATTCAGAATGGCGTCGA"
  assay.target: "FXR:RXRa (NR concentration 270 nM, RXRa partner concentration 90 nM)"
  class.label: "Condition not met"
- seq.text: "GGTATTAGTTGAAAGGGCAACCGAATGATTCTCG"
  assay.target: "FXR:RXRa (NR concentration 270 nM, RXRa partner concentration 90 nM)"
  class.label: "Condition met"
- seq.text: "ATATGTAGGTTACATCCGGGTCAGTCAGGCTATG"
  assay.target: "FXR:RXRa (NR concentration 270 nM, RXRa partner concentration 90 nM)"
  class.label: "Condition met"
- seq.text: "GCATATATGTAATACAAGGTGAAAGTCCGATTGT"
  assay.target: "FXR:RXRa (NR concentration 270 nM, RXRa partner concentration 90 nM)"
  class.label: "Condition not met"
- seq.text: "CAGCCTATGTCAGGGCCAGTATAGGAGGAACGTT"
  assay.target: "FXR:RXRa (NR concentration 270 nM, RXRa partner concentration 90 nM)"
  class.label: "Condition not met"
- seq.text: "CAGCCTAGGTCAGGGCCACTATAGGAGGAACGTT"
  assay.target: "FXR:RXRa (NR concentration 270 nM, RXRa partner concentration 90 nM)"
  class.label: "Condition met"
- seq.text: "ACAGACAGGTGCTGAAGGTAACTCAGGCTATCAT"
  assay.target: "FXR:RXRa (NR concentration 270 nM, RXRa partner concentration 90 nM)"
  class.label: "Condition not met"

Incoming: Does the sequence AGTCAAAGTTCAGGACGTGGTAACGTAAAGCACG have recorded PBM binding z-score that is 1 or more?
Outgoing: Condition met

Incoming: Does the sequence CCGACTGGGGCAAAAGTTACCATACTCAGTACGA have recorded PBM binding z-score that is 1 or more?
Outgoing: Condition not met

Incoming: Does the sequence GTACCAAGGGGAATAGGTCGTTGATGAGTAGGCG have recorded PBM binding z-score that is 1 or more?
Outgoing: Condition not met

Incoming: Does the sequence GCTAGTTGGTCAGTAAAAGGTCGCACACCGGTCG have recorded PBM binding z-score that is 1 or more?
Outgoing: Condition not met

Incoming: Does the sequence GCTAGCAGTCCATTTGGGTCACTCAATGACGGGC have recorded PBM binding z-score that is 1 or more?
Outgoing: Condition not met

Incoming: Does the sequence GCTCGGACGACAAGGTCAGAGCTTTGTCCGTAGA have recorded PBM binding z-score that is 1 or more?
Outgoing: Condition met

Incoming: Does the sequence CCTACTGGGCCATCAGCTCATTGATATCAACGTT have recorded PBM binding z-score that is 1 or more?
Outgoing: Condition not met

Incoming: Does the sequence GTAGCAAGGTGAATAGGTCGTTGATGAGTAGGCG have recorded PBM binding z-score that is 1 or more?
Outgoing: Condition not met

Incoming: Does the sequence GGAACGAGGGCAAGTTGACAGCAGAGTTTGATGG have recorded PBM binding z-score that is 1 or more?
Outgoing: Condition not met

Incoming: Does the sequence ATACCAGGGTGATCGTGAGGTCGTTGATACTAAC have recorded PBM binding z-score that is 1 or more?
Outgoing: Condition met

Incoming: Does the sequence TCTTGTAGATCAGCAGGTTAAGTAAGCTGGCCAA have recorded PBM binding z-score that is 1 or more?
Outgoing: Condition not met

Incoming: Does the sequence GCTAGCAGGCCGTTTGGGTCACTCAATGACGGGC have recorded PBM binding z-score that is 1 or more?
Outgoing: Condition not met

Incoming: Does the sequence CCTAGTTGGGCAAGGTCACACACGCTATAGGTAC have recorded PBM binding z-score that is 1 or more?
Outgoing: Condition met
